Recorded Heart, one value per entry.
- Test system: LNCaP tumor-transplanted mouse
- Assay Notes: Internal radioactivity distribution using LNCaP tumor-transplanted mouse
- Type: in vivo
- Experimental Context: 1 h after administration
Report as a plain number; the unit % ID/g is understood.

INSERT INTO assay_data (compound, test_readout, numeric_result) VALUES
  ('O=C([O-])CN(Cc1cccc(C(=O)[O-])n1)C[C@H](Cc1ccc(NC(=O)[C@H](CCCCNC(=O)CCC(=O)NCCCC[C@H](NC(=O)N[C@@H](CCC(=O)O)C(=O)O)C(=O)O)NC(=O)CCCc2ccc(I)cc2)cc1)N(CC(=O)[O-])Cc1cccc(C(=O)[O-])n1.[111In+3] [[^111In]In-Octapa-2]', 'Heart', 3.98),
  ('O=C([O-])CN1CCN(C(CCC(=O)NCCCC[C@H](NC(=O)N[C@@H](CCC(=O)O)C(=O)O)C(=O)O)C(=O)[O-])CCN(CC(=O)[O-])CCN(C(CCC(=O)Nc2ccccc2)C(=O)[O-])CC1.[111In+3] (stereo partly drawn) [[^111In]In-PSMA-DB, reference compound]', 'Heart', 0.87);

Now consider the entry below.
The compound O=C([O-])CN1CCN(C(CCC(=O)NCCCC[C@H](NC(=O)N[C@@H](CCC(=O)O)C(=O)O)C(=O)O)C(=O)[O-])CCN(CC(=O)[O-])CCN(C(CCC(=O)N[C@@H](CCCCNC(=O)CCCc2ccc(I)cc2)C(=O)O)C(=O)[O-])CC1.[111In+3] (stereo partly drawn) [[^111In]In-PSMA-DA1] showed Heart equal to 7.93

----------
Reported Kidney values are given for each entry in this list.
- Test system: LNCaP tumor-transplanted mouse
- Assay Notes: Internal radioactivity distribution using LNCaP tumor-transplanted mouse
- Format: in vivo
- Experimental Context: 24 h after administration
Entry rule: numbers only, all in % ID/g.

Use the examples below as a reference point.
INSERT INTO results (compound, test_readout, numeric_result) VALUES
  ('O=C([O-])CN1CCN(C(CCC(=O)NCCCC[C@H](NC(=O)N[C@@H](CCC(=O)O)C(=O)O)C(=O)O)C(=O)[O-])CCN(CC(=O)[O-])CCN(C(CCC(=O)Nc2ccccc2)C(=O)[O-])CC1.[111In+3] (stereo partly drawn) [[^111In]In-PSMA-DB, reference compound]', 'Kidney', 13.2),
  ('O=C([O-])CN1CCN(C(CCC(=O)NCCCC[C@H](NC(=O)N[C@@H](CCC(=O)O)C(=O)O)C(=O)O)C(=O)[O-])CCN(CC(=O)[O-])CCN(C(CCC(=O)N[C@@H](CCCCNC(=O)CCCc2ccc(I)cc2)C(=O)O)C(=O)[O-])CC1.[111In+3] (stereo partly drawn) [[^111In]In-PSMA-DA1]', 'Kidney', 27.1);

Consider the record given below.
Field Kidney (system: LNCaP tumor-transplanted mouse) for entry O=C([O-])CN(Cc1cccc(C(=O)[O-])n1)C[C@H](Cc1ccc(NC(=O)[C@H](CCCCNC(=O)CCC(=O)NCCCC[C@H](NC(=O)N[C@@H](CCC(=O)O)C(=O)O)C(=O)O)NC(=O)CCCc2ccc(I)cc2)cc1)N(CC(=O)[O-])Cc1cccc(C(=O)[O-])n1.[111In+3] [[^111In]In-Octapa-2] = 55.3

Cited source for all entries: patent US20240174622A1
